Molecular target: Gab1 G1 peptide (Homo sapiens)
Test: ITC
# Kd annotations
Report the value in µM with no unit label.

binder="Grb2 cSH3, P62993 (protein) QQPTYVQALFDFDPQEDGELGFRRGDFIHVMANSDPNWWKGACHGQTGMFPRNYVTPVNR" reported_result=171

// switching to the query binder
For this binder ( Grb2 cSH3, P62993 (protein) QQPTYVQALFDFDPQADGELGFRRGDFIHVMDNSDPNWWKGACHGQTGMFPRNYVTPVNR ), measured Kd is 444
